Reference source: PubChem BioAssay

Target Entity: Short transient receptor potential channel 6 (Mus musculus)
Assay Procedure: activation of mouse TRPC6 channel, confirmation, selectivity assay for TRPC4 activator project, cell-based, HEK293, membrane potential dye, duplicate (AID 434950);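 as to activation: 0% = buffer only wells and 100% = acetylcholine maximal-effect wells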
Experimental Parameters: HEK293 TRPC6, membrane potential fluorescence, at 10 µM
Activity calls are given as the source filed them.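 The calls were made as follows: active = membrane potential signal rise above negative control mean plus 3 SD in both duplicates, also active in the earlier TRPC4 screen; inactive = the rest.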
Choose the fitting class; nothing outside yes (1) for active, no (0) for inactive is accepted.

Below are worked cases with known answers.
IN: Which outcome did this test record for the compound O=[N+]([O-])c1cc2c(cc1CNCCc1ccc3c(c1)OCO3)OCO2 ?
OUT: no (0)

IN: Status in this test for COc1ccc2c(c1O)[C@]13CCN(C)[C@H](C2)[C@@H]1CCC(=O)C3 ?
OUT: yes (1)

Next:
IN: Each compound tested received a call. Report the one for COc1cc(C)c(CNCCc2c[nH]c3ccccc23)cc1C .
OUT: yes (1)

IN: Please indicate how the test categorized CCOc1c(Cl)cc(CNC(C)C(O)c2ccccc2)cc1OC (stereo unspecified) .
OUT: no (0)

* * *

Target Entity: Short transient receptor potential channel 6 (Mus musculus)
Assay Procedure: inhibition of mouse TRPC6 channel, confirmation, selectivity assay for TRPC4 inhibitor project, cell-based, HEK293, membrane potential dye, duplicate (AID 434948)
Experimental Parameters: HEK293 TRPC6, membrane potential dye fluorescence, at 10 µM; stimulated with maximal-effect acetylcholine unless noted
Active and inactive are the calls of the source.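 Rule for the calls: active = active in primary screen and both duplicates, each dropping signal beyond three positive-control SD with fluorescence still positive; inactive = the rest.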
Readout Type: outcome

Past entries and their recorded results:
IN: GET /values?readout=outcome&item= CN(C)C1(CNC(=O)c2ccc(Cl)c(S(=O)(=O)NCc3ccco3)c2)CCCCC1
OUT: inactive

IN: Please look up its outcome: O=C(c1ccc(Cl)cc1)C1CCCN(C2CCSCC2)C1 (stereo unspecified)
OUT: inactive

IN: Record request: outcome value, item Clc1ccc(OCC#CCN2CCCC2)cc1
OUT: inactive

IN: GET /values?readout=outcome&item= N=c1c[n+](CC23CC4CC(CC(C4)C2)C3)[n-]o1
OUT: inactive

Next, consider the following compound.
IN: If you can, please state the reported outcome value of Cc1ccc(NC(=S)NCCc2cnc[nH]2)cc1C .
OUT: inactive

* * *

Target Entity: Potassium voltage-gated channel subfamily KQT member 1 (Homo sapiens) (UniProt P51787)
Sequence (P51787 whole entry, looked up): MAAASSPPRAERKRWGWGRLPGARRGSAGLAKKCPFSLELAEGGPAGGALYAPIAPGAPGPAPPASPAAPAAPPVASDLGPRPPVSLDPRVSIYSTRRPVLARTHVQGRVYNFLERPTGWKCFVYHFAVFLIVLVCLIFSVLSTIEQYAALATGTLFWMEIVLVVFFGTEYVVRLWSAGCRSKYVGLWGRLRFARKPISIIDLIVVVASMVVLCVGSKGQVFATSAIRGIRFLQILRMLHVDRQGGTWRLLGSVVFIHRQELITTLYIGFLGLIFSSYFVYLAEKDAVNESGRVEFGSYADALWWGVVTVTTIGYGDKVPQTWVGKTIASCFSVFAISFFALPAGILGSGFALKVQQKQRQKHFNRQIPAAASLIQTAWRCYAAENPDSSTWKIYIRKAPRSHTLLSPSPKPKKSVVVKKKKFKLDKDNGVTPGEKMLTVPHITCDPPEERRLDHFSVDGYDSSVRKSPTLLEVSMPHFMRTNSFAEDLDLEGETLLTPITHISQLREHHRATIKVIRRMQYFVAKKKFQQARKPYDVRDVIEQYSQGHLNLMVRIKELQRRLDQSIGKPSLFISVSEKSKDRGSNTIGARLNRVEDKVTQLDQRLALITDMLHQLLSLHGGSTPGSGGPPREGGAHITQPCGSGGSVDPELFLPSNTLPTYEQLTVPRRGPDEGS
Assay Procedure: KCNQ1 potassium channel potentiators, confirmation, FluxOR thallium flux, CHO cells, duplicates (AID 493007);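 as to outcome: cells depolarized by a potassium plus thallium sulfate stimulus after compound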
Experimental Parameters: KCNQ1 cell line, FluxOR thallium flux fluorescence, at 10 µM, % of reference activator effect, buffer zero
Activity calls are given as the source filed them.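 The calls were made as follows: active = potentiation averaged over duplicate wells exceeding buffer-only control mean by more than 3 SD; inactive = the rest.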
The reply should name one outcome from 1 (yes) for active, 0 (no) for inactive

Illustrative cases are given below, each with its answer.
IN: Call for entry COc1ccc2c(c1)/C(=C/c1cnc[nH]1)C(=O)N2 :
OUT: 0 (no)

IN: Name the outcome recorded for CC1(C)CSC(=NCc2ccccc2)N1 in the assay.
OUT: 1 (yes)

IN: Each compound tested received a call. Report the one for O=C(c1ccc(-c2ccccc2)cc1)C1CCCN(Cc2ccn[nH]2)C1 (configuration not stated) .
OUT: 0 (no)

IN: Per the assay record, what outcome was assigned to COc1cccc(CC(=O)N2CCN(Cc3cccc(Cl)c3)CC2)c1 ?
OUT: 0 (no)

IN: // param item: O=[N+]([O-])c1ccc(N2CCOCC2)c2ccncc12 ; yields the recorded call
OUT: 0 (no)

IN: Recorded call for C/C1=C\[C@@H](C)C/C=C/[C@H]2[C@@H]3O[C@]3(C)[C@@H](C)[C@H]3[C@H](Cc4c[nH]c5ccccc45)NC(=O)[C@]32C(=O)/C=C/C(=O)[C@@H]1O ?
OUT: 1 (yes)

---
IN: Call for entry CCOC(=O)C1C(=O)NC2(C)CC1c1cc(OC)ccc1O2 (configuration not stated) :
OUT: 0 (no)

IN: Outcome? CNC(=O)NC(O)C(Cl)(Cl)Cl (configuration not stated)
OUT: 0 (no)

* * *

Assay Procedure: calcium flux activation in mu-opioid HEK293 cells, confirmation, counter-screen for TRPC4 activator project, cell-based, HEK293 mu-opioid receptor line (AID 449723);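 also: counter screen cells carry the mu-opioid receptor alone and lack TRPC4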
Experimental Parameters: Fluo-4 calcium fluorescence, at 10 µM
Calls of active or inactive are those of the source.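 How the source made its calls: active means hit in primary screen, with calcium signal over 5 SD above buffer well mean in both duplicates; inactive means the rest.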
The categories you may choose from are active, inactive

For orientation, consider the following solved cases.
IN: Hi, do you know how COc1ccc(C(=O)C2CCCN(C3CSCCSC3)C2)cc1OC (centres undefined) came out in this test?
OUT: inactive

IN: # outcome recorded in this test, key = COc1ccc(C(CNC(=O)Cc2ccc(Cl)c(Cl)c2)N(C)C)cc1 (centres undefined)
OUT: inactive

IN: For Cc1nc2ccccn2c1P(=S)(N1CCCCC1)N1CCCCC1 , what call appears in the results of this test?
OUT: active

IN: Query: recorded result category for CCOC(=O)C1(CCc2ccccc2)CCN(Cc2csc(C(C)=O)c2)CC1 in this test
OUT: inactive

Shifting focus to the compound that follows.
IN: Name the outcome recorded for Cc1ccsc1C(=O)C1CCCN(Cc2ccccc2O)C1 (centres undefined) in the assay.
OUT: inactive

* * *

Test system: transient receptor potential cation channel C4 beta (TRPC4), mouse
Assay Procedure: activators of mouse TRPC4 channel, confirmation, cell-based, second round, Fluo4, HEK293 TRPC4beta/mu-opioid, 1 µM (AID 2461)
Experimental Parameters: Fluo4 calcium fluorescence, at 1 µM; hits give high values
Active and inactive are the calls of the source.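 Rule for the calls: active = primary screen active and over 50% activation in each of two duplicate runs; inactive = the rest.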
Readout Type: activation

IN: // returns reported activation for input CCc1ccc(OCCCN=C(C)c2c(O)n(C)c(=O)n(C)c2=O)cc1
OUT: inactive

IN: Name the recorded activation for CCN(CC)c1ccc([N+](=O)[O-])c2cccnc12 .
OUT: inactive

IN: Look at this molecule and give its reported activation. Clc1ccc(OCC#CCN2CCCC2)cc1
OUT: inactive

* * *

Target Entity: Short transient receptor potential channel 4 (Mus musculus)
Assay Procedure: calcium flux activators in TRPC4/5HT1a cells, counter-screen for TRPC4 activator project, cell-based, second counter screen, HEK293 TRPC4/5HT1a, Fluo-4 (AID 434977);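 as to activation: plate controls were assay buffer for no effect and maximal serotonin response for full effect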
Experimental Parameters: Fluo-4 calcium flux, at 10 µM; hits give high values
The source made the active and inactive calls.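 Rule for the calls: active = calcium signal rise above buffer-control mean plus 5 SD in both duplicates, and also a hit in the primary screen; inactive = the rest.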
Readout Type: activation

IN: Value lookup for activation; key = NC(N)=N/N=C/c1ccc(N(c2ccccc2)c2ccccc2)cc1
OUT: 48.2% (active)

IN: May I ask what activation has been recorded for COC(=O)C(O)(c1ccc(NC(=S)NC(=O)c2ccc(Cl)cc2Cl)c(C)c1)C(F)(F)F (stereo not drawn) ?
OUT: inactive

IN: Look up activation: CC(Cc1ccccc1)NCC(=O)Nc1cc(N(C)C)nc2ccccc12 (stereo not drawn)
OUT: inactive

IN: Value lookup for activation; key = CCN(CC)CC(=O)Nc1ccc(Cl)cc1C(=O)c1ccccc1
OUT: inactive

IN: What activation value was documented for this molecule, Cc1cccc(N2CCc3c2nc2ccccc2c3N)c1 ?
OUT: inactive

IN: Reported activation for Cc1ccc(CN2C3CCCC2CC(NC(=S)NCc2ccccc2)C3)cc1 (stereo not drawn) : what is it?
OUT: inactive

IN: // activation lookup, key: CC(N)Cc1c[nH]c2cc3c(cc12)OCCO3 (stereo not drawn)
OUT: 107% (active)

IN: Quick check: activation of COc1ccc(C[C@@H]2c3cc(O)c(OC)cc3CCN2C)cc1O ?
OUT: inactive

Kindly give each listed record's activation.
1. COc1ccc2c(c1O)C13CCN(C)C(C2)C1CCC(=O)C3 (stereo not drawn)
2. CCC1=Nc2cc(C(=O)N3CCC4(CC3)OCCO4)ccc2Sc2ccc(Br)cc21
3. CCN(CC)c1ccc([N+](=O)[O-])c2cccnc12
4. c1ccc2sc(C3CCCNC3)nc2c1 (stereo not drawn)
5. CCc1n[nH]c(CCN)n1

OUT:
1. inactive
2. inactive
3. inactive
4. 95.3% (active)
5. 48.7% (active)

// each molecule listed below needs its activation
1. CC(Cc1ccccc1Sc1ccccc1)N(C)C (stereo not drawn)
2. COc1ccccc1CC(=O)N1CCN(CCc2ccccc2)CC1
3. O=C1OC(c2ccc([N+](=O)[O-])cc2)=N/C1=C/N1CC2CC(C1)c1cccc(=O)n1C2 (stereo not drawn)
4. CCN1CCN(Cc2cc(Br)ccc2O)CC1
5. O=C(c1ccc(Cl)cc1)C1CCCN(C2CCSCC2)C1 (stereo not drawn)
6. COc1ccc2[nH]cc(CCN(C)C)c2c1
7. CCc1nccc2c1[nH]c1ccccc12
8. CCC1(C)CC(CCNCc2ccc(N(C)C)cc2)(c2ccc(F)cc2)CCO1 (stereo not drawn)

OUT:
1: inactive; 2: 13.4% (active); 3: 64.7% (active); 4: inactive; 5: inactive; 6: inactive; 7: inactive; 8: inactive

State the recorded activation for every item in the following list.
1. CCOC(=O)C1(c2ccccc2)CCN(CC(=O)Nc2ccc(C)cc2)CC1
2. COc1ccc(C(CNC(=O)Cc2ccc(Cl)c(Cl)c2)N(C)C)cc1 (stereo not drawn)
3. C=CCOC(=O)C1=C(C)OC(N)=C(C#N)[C@@]12C(=O)N(CC(N)=O)c1ccccc12
4. CN(CCOc1ccc(C=C2C(=O)NC(=O)NC2=O)cc1)c1ccccn1
5. Cc1ccc(-n2cc(CNC(C)Cc3cnccn3)c(-c3cccc(C)c3)n2)cc1 (stereo not drawn)
6. CCn1ccnc1CN1CCCC(C(=O)c2cccc(C(F)(F)F)c2)C1 (stereo not drawn)

OUT:
1: inactive; 2: inactive; 3: inactive; 4: inactive; 5: inactive; 6: inactive

Batch request: activation per item, same order as input.
1. Cc1ccc(C2CN(C)CC2C(=O)c2ccc(F)cc2)cc1 (stereo not drawn)
2. CN(C)C(CNC(=O)Cc1ccc(Br)cc1)c1ccccc1 (stereo not drawn)
3. Cc1ccc(-c2nc(N(C)C3CCN(C)CC3)c3ccccc3n2)cc1

OUT:
["inactive", "inactive", "inactive"]
